- targetOrTestSystem: human 5-HT2A receptor (Homo sapiens, UniProt P28223)
- Construct: expressed in transfected cells; host or cells: CHO (CHO-5-HT2A cell line)
- Sequence (P28223 whole entry): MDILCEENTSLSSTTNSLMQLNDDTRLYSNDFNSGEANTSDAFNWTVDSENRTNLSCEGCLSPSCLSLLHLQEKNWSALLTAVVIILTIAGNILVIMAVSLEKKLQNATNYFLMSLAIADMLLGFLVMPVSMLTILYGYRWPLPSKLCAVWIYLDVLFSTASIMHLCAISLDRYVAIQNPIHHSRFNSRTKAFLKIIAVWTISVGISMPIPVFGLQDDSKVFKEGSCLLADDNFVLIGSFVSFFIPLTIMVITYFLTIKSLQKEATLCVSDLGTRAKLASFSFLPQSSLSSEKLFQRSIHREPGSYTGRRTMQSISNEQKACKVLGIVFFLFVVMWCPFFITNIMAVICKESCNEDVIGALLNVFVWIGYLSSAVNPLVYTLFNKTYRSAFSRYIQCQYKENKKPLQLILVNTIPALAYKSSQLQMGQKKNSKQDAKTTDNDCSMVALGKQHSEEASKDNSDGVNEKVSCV
- runDescription: Competition binding to the human 5-HT2A receptor ([3H]ketanserin, CHO-5-HT2A membranes)
- setupConditions: from Ki values, Table 1
Parameter threshold = 3. Response is label 1 when Selectivity 5-HT2A/2C (binding) meets or exceeds it, else label 0.

Does Selectivity 5-HT2A/2C (binding) meet or surpass 3 for Cc1ccc(O)c(CNCCc2c[nH]c3ccccc23)c1 [Compound 23] ?
label 0

Same for Oc1ccc(Br)cc1CNCCc1c[nH]c2ccccc12 [Compound 26]
label 0

Same for COc1ccc2[nH]cc(CCNCc3ccccc3Cl)c2c1 [Compound 39]
label 1

Same for COc1ccc(CNCCc2c[nH]c3ccccc23)cc1OC [Compound 36]
label 0

Same for COc1ccc2[nH]cc(CCNCc3cc(F)ccc3O)c2c1 [Compound 43]
label 1

Same for COc1ccccc1CNCCc1c[nH]c2ccccc12 [Compound 3]
label 0

Same for Oc1c(Br)cccc1CNCCc1c[nH]c2ccccc12 [Compound 21]
label 1

* * *

- targetOrTestSystem: human 5-HT2C receptor (Homo sapiens)
- Construct: expressed in transfected cells; host or cells: HeLa (HeLa-5-HT2C cell line)
- Sequence (P28335 33-458): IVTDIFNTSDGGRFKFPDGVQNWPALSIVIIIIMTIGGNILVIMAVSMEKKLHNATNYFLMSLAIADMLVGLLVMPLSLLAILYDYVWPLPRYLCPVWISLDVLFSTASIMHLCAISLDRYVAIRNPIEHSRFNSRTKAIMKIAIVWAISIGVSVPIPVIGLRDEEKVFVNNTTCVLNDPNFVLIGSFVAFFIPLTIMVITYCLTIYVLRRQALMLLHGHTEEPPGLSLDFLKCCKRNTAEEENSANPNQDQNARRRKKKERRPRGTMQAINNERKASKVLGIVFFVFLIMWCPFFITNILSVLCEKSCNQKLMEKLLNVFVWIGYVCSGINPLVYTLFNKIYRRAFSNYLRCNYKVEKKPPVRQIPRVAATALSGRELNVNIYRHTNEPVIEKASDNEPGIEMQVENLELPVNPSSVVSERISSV
- runDescription: Ca2+ mobilization in HeLa h5-HT2C cells
- Type: cell-based
- setupConditions: HeLa; read-out: 5-HT2C % Emax
Task for the reader: assign each of the following compounds its reported Emax.
Answer format: numeric, % implied, no suffix.

Recorded Emax of COc1ccc(CNCCc2c[nH]c3ccccc23)c(OC)c1 , please.
117

Same for Brc1ccccc1CNCCc1c[nH]c2ccccc12
109

Same for Cc1ccc(O)c(CNCCc2c[nH]c3ccccc23)c1
89.4

Same for Oc1ccc(F)cc1CNCCc1c[nH]c2ccccc12
105

Same for Oc1cccc(CNCCc2c[nH]c3ccccc23)c1
96.3

Same for COc1ccc2[nH]cc(CCNCc3ccc(Br)cc3)c2c1
93.5

Same for Cc1cccc(CNCCc2c[nH]c3ccccc23)c1
82.6

Same for COc1cccc(CNCCc2c[nH]c3ccccc23)c1O
107

Same for Oc1cc(Br)ccc1CNCCc1c[nH]c2ccccc12
74.8

Same for Clc1ccc(CNCCc2c[nH]c3ccccc23)cc1
98.3

Same for Cc1ccccc1CNCCc1c[nH]c2ccccc12
107

Same for Oc1c(F)cccc1CNCCc1c[nH]c2ccccc12
104

Same for Oc1c(Br)cccc1CNCCc1c[nH]c2ccccc12
98.8

Same for COc1ccc(CNCCc2c[nH]c3ccccc23)cc1OC
100

Same for Oc1ccc(CNCCc2c[nH]c3ccccc23)cc1
99.7

Same for COc1ccc2[nH]cc(CCNCc3cc(F)ccc3O)c2c1
106
